Taken from patent US20100330094A1.

Target: T1, recombinant human IP-10 (hIP-10) (human, UniProt P02778 22-98)
T1 sequence (looked up): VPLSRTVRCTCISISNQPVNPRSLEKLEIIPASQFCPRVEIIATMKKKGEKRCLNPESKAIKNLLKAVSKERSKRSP
Assay: cell-based or functional assay
Could you label it Condition met if measured Calcium flux IC50 (nM); 10 nM hIP-10; hCXCR3 L1.2 cells is 10 nM or higher, and Condition not met otherwise?

Binder	Class
CF1A11R3P3_F3, scFv format (scFv, V domains shown, not shown: small tags and cut ends) VH: QVQLVESGGGVVQPGRSLRLSCAASGFTFSNSGIHWVRQAPGKGLEWVAVISYDGSNKFYADSVKGRFTISRDNSKNTLYLQMNSLRAEDTAVYYCAKLRDNGEYLDYWGQGTLVTVSS VL: NFMLTQPHSVSESPGKTVTISCTGSGGSIDRNYVQWYQQRPGSAPITVIYEDNQRPSGVPDRFSGSIDSSSNSASLTISGLRTDDEADYYCQSYDSINLWVFGGGTKVTVL	Condition met

Note: attention shifts to another entry.
Please check the record CF1H1R3P4_B5, scFv format (scFv) QVQLVESGGGVVQPGRSLRLSCAASGFTFSNSGIHWVRQAPGKGLEWVAVISYDGSNKFYADSVKGRFTISRDNSKNTLYLQMNSLRAEDTAVYYCAKLRDNGEYLDYWGQGTLVTVSSNFMLTQPHSVSESPGKTVTISCTGSGGSIDRNYVQWYQQRPGSSPTTVIYEDNQRPSGVPDRFSGSIDSSSNSASLTISGLKTEDEADYYCQSYVETPEWVFGGGTKLTVL and state if its Calcium flux IC50 (nM); 10 nM hIP-10; hCXCR3 L1.2 cells is at or above 10 nM.
Condition not met
